# TESTED_ON: T1, human erythropoietin receptor (EpoR) on human erythroleukemic cells (human, UniProt P19235 25-508)
# T1 sequence (looked up): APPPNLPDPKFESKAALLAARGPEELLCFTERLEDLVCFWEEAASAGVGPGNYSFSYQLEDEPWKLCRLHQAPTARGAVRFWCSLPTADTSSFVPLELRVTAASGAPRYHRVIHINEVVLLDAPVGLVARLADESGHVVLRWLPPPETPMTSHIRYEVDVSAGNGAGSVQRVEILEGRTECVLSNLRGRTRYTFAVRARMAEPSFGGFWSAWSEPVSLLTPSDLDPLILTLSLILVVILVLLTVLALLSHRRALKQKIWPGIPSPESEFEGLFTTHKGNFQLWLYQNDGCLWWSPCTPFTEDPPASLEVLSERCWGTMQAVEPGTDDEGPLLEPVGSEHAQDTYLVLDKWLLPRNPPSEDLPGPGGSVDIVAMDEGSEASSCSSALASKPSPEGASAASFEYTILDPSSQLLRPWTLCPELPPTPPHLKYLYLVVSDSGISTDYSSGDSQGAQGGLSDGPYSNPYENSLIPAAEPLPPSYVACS
# RUN_DESCRIPTION: cell-based or functional assay
MEASURED_ENDPOINT: EC50 (cell proliferation) (nM)
Numbers only, in nM.

Examples from the recorded data:
* Ab12.118 (antibody, IgG2, V domains shown) VH: QVQLQESGPGLVKPSETLSLTCTVSGASISSYYWSWIRQPPGKGLEWIGYIGYSGSTNYNPSLKSRVTISVDTSKNQFSLKLRSVTAADTAVYYCARERLGIGDYWGQGTLVTVSS VL: DIQLTQSPSSLSASVGDRVTITCRASQGIRNDLGWYQQKPGKAPKRLIYAASSLQSGVPSRFSGSGSGTEFTLTISSLQPEDFATYYCLQHNTYPPTFGQGTKVEIK | 1.13
* Ab12.122 (antibody, IgG2, V domains shown) VH: QVQLQESGPGLVKPSETLSLTCTVSGASISSYYWSWIRQPPGKGLEWIGYIYGEGSTNYNPSLKSRVTISVDTSKNQFSLKLRSVTAADTAVYYCARERLGIGDYWGQGTLVTVSS VL: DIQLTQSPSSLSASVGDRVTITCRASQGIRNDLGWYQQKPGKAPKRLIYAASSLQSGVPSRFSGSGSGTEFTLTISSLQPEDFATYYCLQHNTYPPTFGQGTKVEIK | 0.42
* Ab12.121 (antibody, IgG2, V domains shown) VH: QVQLQESGPGLVKPSETLSLTCTVSGASISSYYWSWIRQPPGKGLEWIGYIGGSGSTNYNPSLKSRVTISVDTSKNQFSLKLRSVTAADTAVYYCARERLGIGDYWGQGTLVTVSS VL: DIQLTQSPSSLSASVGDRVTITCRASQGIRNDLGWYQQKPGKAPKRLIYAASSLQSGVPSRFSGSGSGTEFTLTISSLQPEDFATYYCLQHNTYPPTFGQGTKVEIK | 0.465

Please turn your attention to the following entry.
Ask: Complete the entry with EC50 (cell proliferation) for Ab12.119 (antibody, IgG2, V domains shown) VH: QVQLQESGPGLVKPSETLSLTCTVSGASISSYYWSWIRQPPGKGLEWIGYIYGSGSTNYNPSLKSRVTISVDTSKNQFSLKLRSVTAADTAVYYCARERLGIGDYWGQGTLVTVSS VL: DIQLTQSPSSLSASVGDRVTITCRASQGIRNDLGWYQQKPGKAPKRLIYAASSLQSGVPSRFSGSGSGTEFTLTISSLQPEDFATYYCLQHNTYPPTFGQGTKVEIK
Reply: 1.34
